Reference source: PubChem BioAssay (NCI)

# System: SNB-75 CNS
# assay_protocol: NCI-60 one-dose screen, 48 h (100 = growth as untreated, 0 = no growth, -100 = all killed)
# cond: 10 µM unless noted
This is part of a sample that, as a whole, favours compounds with a hit. Of some 83,000 tested, about 20% had one in any assay.
growth by entry:
The reply should be a number in %, with the unit left off.

Nc1c(C(=O)c2ccccc2)sc2nc(-c3cccs3)cc(-c3cccs3)c12; 22.2
O=C(Nc1ccc(C(=O)Nc2ccc(C3=NCCCN3)cc2)cc1)Nc1ccc(C2=NCCCN2)cc1; 91
Cc1cc(O)c2c(c1)C1OC(=O)CCCCCN1C1=C2C(=O)c2cccc(OC3CC(O)C(O)C(C)O3)c2C1=O (centres undefined); 117
CN(C)CCn1c(=O)c2c3cc4c(cc3n(CCN(C)C)c2c2ccc(Cl)cc21)OCO4; 70.8
CN1CCN(c2nc(NCCNc3ccnc4cc(Cl)ccc34)c3ccccc3n2)CC1; 74.7

-- ask Requested field: growth. Item: "O=C(/C=C/c1ccc2c(c1)OCO2)c1c(O)c2ccccc2oc1=O"
-- reply 87.7

-- ask Requested field: growth. Item: "N#Cc1c(NC(=O)c2cccs2)[n+]([O-])c2ccc(F)cc2[n+]1[O-]"
-- reply 81.1

-- ask Requested field: growth. Item: "CCCCCCCC(=O)SCC/C=C/[C@@H]1CC(=O)NCc2nc(co2)C2=N[C@@](C)(CS2)C(=O)N[C@@H](C(C)C)C(=O)O1"
-- reply 26.1

-- ask Requested field: growth. Item: "CCCNC(=O)c1cn2ncnc(Nc3cc(C(=O)NC4CC4)ccc3C)c2c1C"
-- reply 74.6

* * *

# System: OVCAR-3 ovarian
# assay_protocol: NCI-60 one-dose screen, 48 h
# cond: 10 µM unless noted
# Procedure: Growth inhibition of the OVCAR-3 human tumor cell line is measured as a screen for anti-cancer activity. Cells are grown in 96 well plates and exposed to the test compound for 48 hours. Compounds are tested at a single concentration, which is 10^-5 M for most compounds. The reported endpoint is percent growth (GI% or GIPRCNT), where numbers from 0 - 100% represent growth inhibition, and numbers from -100% - 0 represent cell death. For example, a value of 40 represents 60% growth inhibition. […]
About 83,000 compounds went through this panel and 20% of them were active in at least one assay; those are over-represented in the sample as a whole. Calls of active or inactive are those of the source. Rule for the calls: active = growth percent below 10; inactive = the rest.
Just give me one of these, please: TRUE = active, FALSE = inactive

Before answering, review these 8 worked examples.
COc1cc2c(Oc3ccc4[nH]c(C)cc4c3F)ncnc2cc1OCCCN1CCCC1; FALSE
Nc1c(C(=O)c2ccccc2)sc2nc(-c3cccs3)ccc12; TRUE
Cc1cc(Nc2cc(N3CCN(C)CC3)nc(/C=C/c3ccccc3)n2)n[nH]1; FALSE
CCN(CCCOc1ccc2c(Nc3cc(CC(=O)Nc4cccc(F)c4)[nH]n3)ncnc2c1)CCOP(=O)(O)O; FALSE
Cc1ccc(N=C2CSc3nnc(-c4csc5c4CCCC5)n3N2)cc1; TRUE
CN1CCN(Cc2ccc(NC(=O)c3[nH]ncc3Nc3ncnc4sc5c(c34)CCCC5)cc2)CC1; TRUE
CCc1ccc(/C=C/c2ccc(O)c3ncccc23)[n+](C)c1; TRUE
CCOc1ccc(N=C(C)Nc2ccc(OCC)cc2)cc1; FALSE

-- ask Look up the recorded call for COc1cc2c(cc1OCCCCCN1CCN(c3ncnc4ccccc34)CC1)N=CC1CCCN1C2=O (stereo not drawn) in this test.
-- reply TRUE

-- ask Look up the recorded call for CC1(O)CC(c2nc(-c3ccc4ccc(-c5ccccc5)nc4c3)c3c(N)nccn23)C1 (stereo not drawn) in this test.
-- reply FALSE

-- ask Look up the recorded call for "COC(=O)[C@@H](C)CNS(=O)(=O)N(c1cc(C(F)(F)F)cc(C(F)(F)F)c1)C1CCN(Cc2ccc(F)cc2)CC1" in this test.
-- reply FALSE
